test system: SH-SY5Y cells; assay: sAPPβ release assay; settings: Homo sapiens, SH-SY5Y, read-out: IC50 Cell (sAPPβ release, nM), SH-SY5Y cells, compounds incubated 16-17 h
testReadout: IC50 (nM)

Example entries and their recorded answers appear below.
* [2H]C1([2H])OC(N)=N[C@]12c1cc(-c3cc(C#N)cc(OC)c3)ccc1C[C@]21CC[C@@H](OC)[C@H](C)C1 | 3.2
* COCCCC1Cc2ccc(-c3cc(C#N)cc(OC)c3)cc2C12COC(N)=N2 (stereo not shown) | 715
* [2H]C1([2H])CC2(N=C(N)O1)c1cc(-c3cncnc3)ccc1C[C@]21CC[C@@H](OC)CC1 (stereo partly shown) | 23
* COCCC1Cc2ccc(-c3cc(C#N)cc(OC)c3)cc2C12COC(N)=N2 (stereo not shown) | 223
* [2H]C1([2H])OC(N)=NC12c1cc(-c3cncc(C)c3)ccc1C[C@@]21CC[C@H](OC)[C@@H](C)C1 (stereo partly shown) | 1.6
* [2H]C1([2H])OC(N)=N[C@]12c1cc(-c3cncc(C4CC4)c3)ccc1C[C@@]21CC[C@H](OC)[C@@H](C)C1 | 2.2
* NC1=NC2(CO1)c1cc(-c3cncnc3)ccc1CC2C1CCOCC1 (stereo not shown) | 331
* [2H]C([2H])([2H])O[C@H]1CC[C@@]2(Cc3ccc(-c4cc(Cl)cnc4F)cc3[C@]23N=C(N)OC3([2H])[2H])C[C@@H]1C | 0.6
* [2H]C1([2H])OC(N)=NC12c1cc(-c3cc(C#N)cc(OC)c3)ccc1C[C@@]21C[C@@H](C)[C@H](OC)[C@@H](C)C1 (stereo partly shown) | 2.8
* [2H]C([2H])([2H])O[C@H]1CC[C@@]2(Cc3ccc(-c4cccnc4F)cc3[C@]23N=C(N)OC3([2H])[2H])C[C@@H]1C | 0.39

1: CC1(C2Cc3ccc(-c4cncnc4)cc3C23COC(N)=N3)CCOCC1 (stereo not shown)
2: [2H]C1([2H])OC(N)=N[C@]12c1cc(-c3cncc(C#N)c3)ccc1C[C@@]21CC[C@H](OC)[C@@H](C)C1
3: [2H]C1([2H])OC(N)=NC12c1cc(C([2H])([2H])C([2H])([2H])C(C)C)ccc1C[C@@]21C[C@@H](C)[C@H](OC)[C@@H](C)C1 (stereo partly shown)
4: [2H]C1([2H])OC(N)=NC12c1cc(-c3cc(C#N)cc(OC)c3)ccc1C[C@@]21CC[C@H](O)[C@@H](C)C1 (stereo partly shown)
5: CO[C@H]1CC[C@]2(CC1)Cc1ccc(-c3cncc(C(F)(F)F)c3)cc1C21COC(N)=N1 (stereo partly shown)
Sort ascending by IC50. Sort the labels as requested; that list is your answer. 2, 3, 5, 4, 1
(2: 0.2 nM, 3: 4.4 nM, 5: 7.3 nM, 4: 15.8 nM, 1: 205 nM)
